Each recorded value in this set is attributed to patent US8278326B2.

system: HIV-1 IIIB; assay: Inhibition of HIV-1 replication, IIIB (Table 6); assay type: cell-based; details: read-out: IIIB, IC50; HIV-1 replication
Each record here notes measured IC50.

Compound: COc1ccc(C(CNC(=O)CN2CCc3ccccc3C2)c2c[nH]c3ccccc23)cc1 (stereo not drawn) [1H4]
IC50 / µM: 9.4
--
Compound: COc1ccc(C(CNC(=O)CN2CCc3ccccc3C2)c2c[nH]c3ccccc23)cc1 (stereo not drawn) [1E07]
IC50 / µM: 2.5
--
Compound: COc1ccc(C(CNC(=O)CN2CCc3ccccc3C2)c2c[nH]c3ccccc23)cc1 (stereo not drawn) [1G3, reference compound]
IC50 / µM: 37
